Measured Kd, listed per entry for reference.
# target.under.test: GDP-bound KRAS wild-type protein (Homo sapiens, UniProt P01116)
# Sequence (P01116 whole entry): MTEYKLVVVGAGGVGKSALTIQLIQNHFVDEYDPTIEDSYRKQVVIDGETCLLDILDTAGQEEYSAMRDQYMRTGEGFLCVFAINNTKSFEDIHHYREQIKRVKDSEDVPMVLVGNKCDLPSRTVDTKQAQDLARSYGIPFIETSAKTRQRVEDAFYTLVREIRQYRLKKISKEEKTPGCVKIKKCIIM
# protocol.notes: Binding to KRAS by surface plasmon resonance (SPR), Single Cycle Kinetics
# test.conditions: SPR, Single Cycle Kinetics, GDP-bound KRAS wild-type protein; read-out: KRAS KD
Numeric only. Scale: nM

Below are worked cases with known answers.
CC[C@H](C)[C@@H]1NC(=O)[C@@H]2CCCCCCc3ccc(cc3)C[C@@H](C(=O)N(C)CC(=O)N[C@@H](CCc3ccc(C(F)(F)F)c(OC)c3)C(=O)N3CC4(CC4)C[C@H]3C(=O)NC3(CC(C)(C)C3)C(=O)N(C)[C@@H](C3CCCC3)C(=O)N(C)[C@H](C(=O)N(C)C)CC(=O)N2C)N2CC/C=C\C[C@@H](C2=O)N(C)C(=O)CN(C)C1=O [PP3069] | 0.034
CCC[C@H]1C(=O)N[C@@H]([C@@H](C)CC)C(=O)N(C)CC(=O)N(C)[C@H]2C/C=C\CCN(C2=O)[C@@H](Cc2ccc(C)cc2)C(=O)N(C)CC(=O)N[C@@H](CCc2ccc(C(F)(F)F)c(OC)c2)C(=O)N2C[C@H](OCC)C[C@H]2C(=O)NC2(CC(C)(C)C2)C(=O)N(C)[C@@H]([C@@H](C)CC)C(=O)N(C)[C@H](C(=O)N(C)C)CC(=O)N1C [PP3006] | 0.41

--- query ---
Given the entry CCO[C@@H]1C[C@H]2C(=O)N(C)C3(CCC3)C(=O)N(C)[C@@H](C3CCCC3)C(=O)N(C)[C@H](C(=O)N(C)C)CC(=O)N(C)[C@@H](CC3CC3)C(=O)N[C@@H]([C@@H](C)CC)C(=O)N3CCC[C@H]3C(=O)N(C)[C@H]3C/C=C\CCN(C3=O)[C@@H](Cc3ccc(C)cc3)C(=O)N(C)CC(=O)N[C@@H](CCc3cc(F)c(C(F)(F)F)c(F)c3)C(=O)N2C1 [PP1797] , report its measured Kd.
0.1
